All values here come from patent EP2340832A1.

- Test system: extracellular ACh concentration in the nucleus accumbens
- conditionSummary: Dose 0.5 µmol i.c.v., 0 to 120 min
reportedEndpoint: 0AUC120 min (% increase x min) Mean ± SEM
Number in % increase x min, nothing else.

// solved cases for 0AUC120 min (% increase x min) Mean ± SEM follow
compound	reading
O=CN1CC[C@]23CC(=O)CC[C@H]2[C@H]1Cc1c(O)ccc(O)c13 [Compound 1, 1,4-dihydroxy-N-formylmorphinan-6-one]	210
O=CN1CC[C@]23CC(=O)CC[C@H]2[C@H]1CC1=C3C(=O)C=CC1=O	98
COc1ccc2c3c1O[C@H]1C[C@@H](O)C=C[C@@]31CCN(C)C2 [Galantamine, galantamine, reference compound]	642

Query: Form field - read-out: 0AUC120 min (% increase x min) Mean ± SEM; system: extracellular ACh concentration in the nucleus accumbens; submitted item: `C=CCN1CC[C@]23CC(=O)CC[C@H]2[C@H]1Cc1cccc(OC)c13`
Response: 85
